The reported measurements were obtained from ChEMBL document CHEMBL1122363.

Activity for assorted compounds
- Species: Rattus norvegicus
- ASSAY_TEXT: The compound was tested for milk ejection activity in rat
- Type: functional
- Design: unit not given here
Positions of bridges follow the written chain, without caps; N, C: chain ends. Non-standard residues stand in square brackets, D forms with d. Residues, ends and D or L forms follow the SMILES beside them. NMeA = CN[C@@H](C)C(=O)O; Mpa = O=C(O)CCS; Sar = CNCC(=O)O
// print number alone

{"columns": ["COMPOUND", "MEASURED_QUANTITY", "REPORTED_RESULT"],
 "data": [
  ["C[C@@H](C(=O)N[C@@H](CCCN=C(N)N)C(=O)NCC(N)=O)N(C)C(=O)[C@@H]1CSSC[C@H](N)C(=O)N[C@@H](Cc2ccc(O)cc2)C(=O)N[C@@H](Cc2ccccc2)C(=O)N[C@@H](CCC(N)=O)C(=O)N[C@@H](CC(N)=O)C(=O)N1 (H-CYFQNC[NMeA]RG-NH2; disulfide 1-6)", "Activity", 2.8]
]}

Tell us which Activity value is on record for CC[C@H](C)[C@@H]1NC(=O)[C@H](Cc2ccc(O)cc2)NC(=O)[C@@H](N)CSSC[C@@H](C(=O)N(C)CC(=O)N[C@@H](CC(C)C)C(=O)NCC(N)=O)NC(=O)[C@H](CC(N)=O)NC(=O)[C@H](CCC(N)=O)NC1=O (H-CYIQNC[Sar]LG-NH2; disulfide 1-6) 564

Assign Activity to the following record: C[C@@H](C(=O)N[C@@H](CCCN=C(N)N)C(=O)NCC(N)=O)N(C)C(=O)[C@@H]1CSSCCC(=O)N[C@@H](Cc2ccc(O)cc2)C(=O)N[C@@H](Cc2ccccc2)C(=O)N[C@@H](CCC(N)=O)C(=O)N[C@@H](CC(N)=O)C(=O)N1 ([Mpa]YFQNC[NMeA]RG-NH2; disulfide 1-6) 1.7

Supply reported Activity belonging to this compound: CC[C@H](C)[C@@H]1NC(=O)[C@H](Cc2ccc(O)cc2)NC(=O)[C@@H](N)CSSC[C@@H](C(=O)NCC(=O)N[C@@H](CC(C)C)C(=O)NCC(N)=O)NC(=O)[C@H](CC(N)=O)NC(=O)[C@H](CCC(N)=O)NC1=O 392

Quickly give me recorded Activity for CC[C@H](C)[C@@H]1NC(=O)[C@H](Cc2ccc(O)cc2)NC(=O)CCSSC[C@@H](C(=O)N(C)CC(=O)N[C@@H](CC(C)C)C(=O)NCC(N)=O)NC(=O)[C@H](CC(N)=O)NC(=O)[C@H](CCC(N)=O)NC1=O 498

Specify reported Activity for the compound shown: NC(=O)CC[C@@H]1NC(=O)[C@H](Cc2ccccc2)NC(=O)[C@H](Cc2ccc(O)cc2)NC(=O)[C@@H](N)CSSC[C@@H](C(=O)NCC(=O)N[C@@H](CCCN=C(N)N)C(=O)NCC(N)=O)NC(=O)[C@H](CC(N)=O)NC1=O (H-CYFQNCGRG-NH2; disulfide 1-6) 0.1

Look up Activity of CC[C@H](C)[C@@H]1NC(=O)[C@H](Cc2ccc(O)cc2)NC(=O)[C@@H](N)CSSC[C@@H](C(=O)N(C)[C@@H](C)C(=O)N[C@@H](CC(C)C)C(=O)NCC(N)=O)NC(=O)[C@H](CC(N)=O)NC(=O)[C@H](CCC(N)=O)NC1=O and report it. 402

Report Activity for CN(CC(=O)N[C@@H](CCCN=C(N)N)C(=O)NCC(N)=O)C(=O)[C@@H]1CSSCCC(=O)N[C@@H](Cc2ccc(O)cc2)C(=O)N[C@@H](Cc2ccccc2)C(=O)N[C@@H](CCC(N)=O)C(=O)N[C@@H](CC(N)=O)C(=O)N1 ([Mpa]YFQNC[Sar]RG-NH2; disulfide 1-6) 38.2
